activation reference
target: Endoplasmic reticulum aminopeptidase 2 (Homo sapiens) (UniProt Q6P179); assay: ERAP2 activation by compounds, dose response, selectivity assay for selective ERAP1 modulator project, biochemical, fluorescence plate reader, cherry-picked samples (AID 743319); details: recombinant ERAP2, Arg-AMC cleavage fluorescence, 1 h; at 11 µM (top of the series)
Sequence (Q6P179 whole entry, looked up): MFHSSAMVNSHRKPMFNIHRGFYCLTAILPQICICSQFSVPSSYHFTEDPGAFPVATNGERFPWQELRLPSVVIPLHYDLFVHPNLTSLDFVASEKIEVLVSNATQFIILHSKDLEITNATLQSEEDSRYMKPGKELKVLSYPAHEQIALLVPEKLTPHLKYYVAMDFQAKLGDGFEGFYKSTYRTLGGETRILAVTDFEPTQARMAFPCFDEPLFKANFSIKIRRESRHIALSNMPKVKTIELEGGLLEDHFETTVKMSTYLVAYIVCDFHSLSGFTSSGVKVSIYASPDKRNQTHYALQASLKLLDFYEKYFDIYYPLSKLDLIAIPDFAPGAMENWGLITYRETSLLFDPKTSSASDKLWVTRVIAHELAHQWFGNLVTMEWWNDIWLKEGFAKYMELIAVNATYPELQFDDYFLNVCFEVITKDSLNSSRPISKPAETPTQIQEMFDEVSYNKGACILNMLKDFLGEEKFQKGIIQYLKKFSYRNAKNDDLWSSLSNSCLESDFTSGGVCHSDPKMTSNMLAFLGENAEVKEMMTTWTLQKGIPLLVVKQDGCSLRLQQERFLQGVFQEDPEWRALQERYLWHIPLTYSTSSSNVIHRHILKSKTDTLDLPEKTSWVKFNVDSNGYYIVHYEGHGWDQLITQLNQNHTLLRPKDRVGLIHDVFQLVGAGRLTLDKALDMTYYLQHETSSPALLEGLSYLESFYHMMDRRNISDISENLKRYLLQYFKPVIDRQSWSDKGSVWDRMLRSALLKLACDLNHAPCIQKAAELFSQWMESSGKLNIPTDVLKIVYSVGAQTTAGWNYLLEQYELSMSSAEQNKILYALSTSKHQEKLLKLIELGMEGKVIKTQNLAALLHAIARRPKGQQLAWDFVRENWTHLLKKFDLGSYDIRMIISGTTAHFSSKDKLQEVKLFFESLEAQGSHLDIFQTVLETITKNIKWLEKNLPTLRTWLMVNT
Your answer is read as %, so omit the unit and give the number.

See these solved cases before continuing.
C[C@@H]1CN([C@H](C)CO)C(=O)c2cccc(NC(=O)Nc3ccccc3)c2O[C@@H]1CN(C)Cc1ccc(C(=O)O)cc1 :: 23.3
C[C@H](CO)N1C[C@H](C)[C@H](CN(C)CC2CCCCC2)Oc2c(NC(=O)Nc3ccc(C(F)(F)F)cc3)cccc2C1=O :: 11.4
O=C(CSc1cn[nH]n1)Nc1cccc(C(=O)O)c1 :: 13.8

get_value(item= "COc1ccc(CN(C)C[C@@H]2OCCCC[C@H](C)Oc3ccc(NS(=O)(=O)c4cccs4)cc3C(=O)N([C@@H](C)CO)C[C@@H]2C)cc1" , readout=activation) returns 20.4

Note to self: activation recorded for "CNC[C@H]1OCCCC[C@@H](C)Oc2ccc(NS(=O)(=O)c3ccc(C)cc3)cc2C(=O)N([C@@H](C)CO)C[C@H]1C" was 1.54
